The measurements presented in this section are drawn from patent US7015228B2.

Test system: S. aureus ATCC 6538
Experiment: Determination of the bactericidal activity (logarithmic reduction in organism count)
Format: cell-based, Staphylococcus aureus
Settings: contact for 30 minutes at a substance concentration of 120 μg/mL
Reported Metric: Logarithmic reduction in organism count, S. aureus ATCC 6538 (log)
Return type: number; implicit unit log.

Solved entries:
CCCCCCCCCNc1cc(C(C)(C)C)nc(-c2ccccn2)n1 : 1
CCCCCCCCCCNc1cc(C(C)C)nc(-c2ccccn2)n1 : 1
CCCCCCCCCCCCCCCNc1cc(C(C)C)nc(-c2ccccn2)n1 : 2

Value of measured Logarithmic reduction in organism count, S. aureus ATCC 6538 for the entry CCCCCCCCCCNc1nc(-c2ccccn2)nc(C)c1C(C)C : 2

For this compound ( CCCCCCCCCCCCNc1cc(C(C)C)nc(-c2ccccn2)n1 ), measured Logarithmic reduction in organism count, S. aureus ATCC 6538 is 1

----------
Tested on: S. aureus ATCC 6538
Assay: Determination of the bactericidal activity (logarithmic reduction in organism count)
Type: cell-based, Staphylococcus aureus
Conditions: contact for 30 minutes at a substance concentration of 120 μg/mL
Below is a list of entries, each paired with its recorded Logarithmic reduction in organism count, S. aureus ATCC 6538 value.
Quick reminder: number only, in log, skip the unit.

Cc1cc(NCCCCCCCCCN)nc(-c2ccccn2)n1 [Compound of formula 18] : 1

Next up:
Reported Logarithmic reduction in organism count, S. aureus ATCC 6538 of Cc1nc(-c2ccccn2)nc(NCCCCCCCCN)c1C(C)C [Compound of formula 65] : 3

----------
System: Enterococcus hirae ATCC 10541
Assay: Minimum inhibitory concentration (MIC), further microorganisms
Type: cell-based
Details: Table 8; * = significant inhibition of growth, but not complete inhibition
Entries and their measured Minimum inhibitory concentration (MIC) Enterococcus hirae ATCC 10541 follow.
Give just the number in µg/mL; leave the unit off.

Examples with answers:
CCCCCCCNc1cc(C(F)(F)F)nc(-c2ccccn2)n1 : 7.5
CCCCCCCCCCCCCCCNc1cc(C(C)C)nc(-c2ccccn2)n1 : 3.75
CCCCCCCCCNc1nc(-c2ccccn2)nc(C)c1CC : 30
CCCCCCCCNc1cc(C(C)C)nc(-c2ccccn2)n1 : 3.75
CCCCCCCCCCCCNc1nc(-c2ccccn2)nc(C)c1CC : 7.5

Just so you know, measured Minimum inhibitory concentration (MIC) Enterococcus hirae ATCC 10541 for CCCCCCCCCNc1cc(C(C)C)nc(-c2ccccn2)n1 came out at 30

The reported value for CCCCCCCCNc1cc(C)nc(-c2ccccn2)n1 in terms of Minimum inhibitory concentration (MIC) Enterococcus hirae ATCC 10541 is 120

Per the records, this compound ( CCCCCCCCCCCNc1nc(-c2ccccn2)nc(C)c1CC ) has Minimum inhibitory concentration (MIC) Enterococcus hirae ATCC 10541 equal to 7.5

In plain terms, CCCCCCCCNc1cc(C(C)(C)C)nc(-c2ccccn2)n1 has a documented Minimum inhibitory concentration (MIC) Enterococcus hirae ATCC 10541 of 1.0

Query CCCCCCCCCCNc1cc(CCOC)nc(-c2ccccn2)n1 yields Minimum inhibitory concentration (MIC) Enterococcus hirae ATCC 10541 of 30

----------
Test system: Staphylococcus hominis DMS 20328
Test: Minimum inhibitory concentration (MIC) in microtitre plates
Format: cell-based
Details: Table 7; 48 hours at 37° C.; MIC = ≦20% growth compared to control
Reported Metric: Minimum inhibitory concentration (MIC) S. hominis (µg/mL)
Provide only the numeric value, understood in µg/mL.

CCCCCCCCCCCNc1cc(C(C)C)nc(-c2ccccn2)n1 : 3.75
CCCCCCCCNc1nc(-c2ccccn2)nc(C)c1C(C)C : 3.75
Cc1nc(-c2ccccn2)nc(NCCc2ccccc2)c1C(C)C : 30

Just so you know, measured Minimum inhibitory concentration (MIC) S. hominis for CCCCCCCCCCCCNc1cc(CCOC)nc(-c2ccccn2)n1 came out at 15

Quick note, Minimum inhibitory concentration (MIC) S. hominis for Cc1cc(NCc2ccccc2)nc(-c2ccccn2)n1 landed at 30
